Exercise: state measured inhibition of growth at 10 µM for each of the compounds provided.
test system: U-251; test: Cytotoxicity against human U251 assessed as growth inhibition at 10 uM by NCI protocol relative to control; format: functional; conditions: read-out: GI
Answers are plain numbers, in %.

Study these solved cases before continuing.
- Chemical Smiles: "Cc1ccc(-c2csc(NC(=O)CN3CCN(c4cc(=O)[nH]c5ccc(F)cc45)CC3)n2)cc1"
  Metric: "inhibition of growth at 10 µM"
  Reported: 44.4
- Chemical Smiles: "O=C(CN1CCN(c2cc(=O)[nH]c3ccc(F)cc23)CC1)Nc1nc(-c2ccc(Cl)cc2)cs1"
  Metric: "inhibition of growth at 10 µM"
  Reported: 37.3

Dear colleague, could you send me inhibition of growth at 10 µM for each of the items below? Thanks.
1. O=C(CN1CCN(c2cc(=O)n(-c3ccccc3)c3ccccc23)CC1)Nc1nc(-c2ccc(Cl)cc2)cs1
2. O=C(CN1CCN(c2cc(=O)n(-c3ccccc3)c3ccccc23)CC1)Nc1nc(-c2ccccc2)cs1
3. COc1ccc(-c2csc(NC(=O)CN3CCN(c4cc(=O)[nH]c5ccc(F)cc45)CC3)n2)cc1

[36.2, 40.8, 30.3]

----------
tested on: K562; test: Cytotoxicity against human K-562 assessed as growth inhibition at 10 uM by NCI protocol relative to control; format: functional; settings: read-out: GI
Metric: inhibition of growth at 10 µM (%)
Numbers only, in %.

Study these solved cases before continuing.
- Chemical Smiles: "O=C(CN1CCN(c2cc(=O)[nH]c3ccc(F)cc23)CC1)Nc1nc(-c2ccc(Cl)cc2)cs1"
  Target: "K562"
  Reported: 44.8
- Chemical Smiles: "O=C(CN1CCN(c2cc(=O)n(-c3ccccc3)c3ccccc23)CC1)Nc1nc(-c2ccccc2)cs1"
  Target: "K562"
  Reported: 77.6

For the next question, use this molecule.
inhibition of growth at 10 µM in this record for O=C(CN1CCN(c2cc(=O)n(-c3ccccc3)c3ccccc23)CC1)Nc1nc(-c2ccc(Cl)cc2)cs1 : 75.8

----------
system: HOP-92; experiment: Cytotoxicity against human HOP-92 assessed as growth inhibition at 10 uM by NCI protocol relative to control; type: functional; details: read-out: GI
Exercise: state measured inhibition of growth at 10 µM for each of the molecules provided.
Numbers only, in %.

- Chemical Smiles: "Cc1ccc(-c2csc(NC(=O)CN3CCN(c4cc(=O)[nH]c5ccc(F)cc45)CC3)n2)cc1"
  Target: "HOP-92"
  Uom: "%"
  Reported: 39.7
- Chemical Smiles: "Cc1ccc(-c2csc(NC(=O)CN3CCN(c4cc(=O)n(-c5ccccc5)c5ccccc45)CC3)n2)cc1"
  Target: "HOP-92"
  Uom: "%"
  Reported: 13.8
- Chemical Smiles: "O=C(CN1CCN(c2cc(=O)[nH]c3ccc(F)cc23)CC1)Nc1nc(-c2ccccc2)cs1"
  Target: "HOP-92"
  Uom: "%"
  Reported: 10.9
- Chemical Smiles: "COc1ccc(-c2csc(NC(=O)CN3CCN(c4cc(=O)[nH]c5ccc(F)cc45)CC3)n2)cc1"
  Target: "HOP-92"
  Uom: "%"
  Reported: 25.4
- Chemical Smiles: "O=C(CN1CCN(c2cc(=O)[nH]c3ccc(F)cc23)CC1)Nc1nc(-c2ccc(Cl)cc2)cs1"
  Target: "HOP-92"
  Uom: "%"
  Reported: 29.7

For the next question, use this molecule.
inhibition of growth at 10 µM in this record for O=c1cc(N2CCNCC2)c2ccccc2n1-c1ccccc1 : 17

----------
tested on: A498; experiment: Cytotoxicity against human A498 assessed as growth inhibition at 10 uM by NCI protocol relative to control; format: functional; conditions: read-out: GI
Metric: inhibition of growth at 10 µM (%)
One number for each entry, in %.

Study these solved cases before continuing.
- Chemical Smiles: "O=C(CN1CCN(c2cc(=O)n(-c3ccccc3)c3ccccc23)CC1)Nc1nc(-c2ccc(Cl)cc2)cs1"
  Metric: "inhibition of growth at 10 µM"
  Reported: 59.2
- Chemical Smiles: "COc1ccc(-c2csc(NC(=O)CN3CCN(c4cc(=O)[nH]c5ccc(F)cc45)CC3)n2)cc1"
  Metric: "inhibition of growth at 10 µM"
  Reported: 49.9
- Chemical Smiles: "O=C(CN1CCN(c2cc(=O)[nH]c3ccc(F)cc23)CC1)Nc1nc(-c2ccc(Cl)cc2)cs1"
  Metric: "inhibition of growth at 10 µM"
  Reported: 60.5
- Chemical Smiles: "O=C(CN1CCN(c2cc(=O)[nH]c3ccc(F)cc23)CC1)Nc1nc(-c2ccccc2)cs1"
  Metric: "inhibition of growth at 10 µM"
  Reported: 27.9
- Chemical Smiles: "O=C(CN1CCN(c2cc(=O)n(-c3ccccc3)c3ccccc23)CC1)Nc1nc(-c2ccccc2)cs1"
  Metric: "inhibition of growth at 10 µM"
  Reported: 33.8
- Chemical Smiles: "Cc1ccc(-c2csc(NC(=O)CN3CCN(c4cc(=O)n(-c5ccccc5)c5ccccc45)CC3)n2)cc1"
  Metric: "inhibition of growth at 10 µM"
  Reported: 18.6
- Chemical Smiles: "O=c1cc(N2CCNCC2)c2cc(F)ccc2[nH]1"
  Metric: "inhibition of growth at 10 µM"
  Reported: 26
- Chemical Smiles: "Cc1ccc(-c2csc(NC(=O)CN3CCN(c4cc(=O)[nH]c5ccc(F)cc45)CC3)n2)cc1"
  Metric: "inhibition of growth at 10 µM"
  Reported: 56.6

For the next question, use this compound.
inhibition of growth at 10 µM in this record for COc1ccc(-c2csc(NC(=O)CN3CCN(c4cc(=O)n(-c5ccccc5)c5ccccc45)CC3)n2)cc1 : 13

----------
test system: SR; experiment: Cytotoxicity against human SR assessed as growth inhibition at 10 uM by NCI protocol relative to control; type: functional; conditions: read-out: GI
Exercise: state measured inhibition of growth at 10 µM for each of the molecules provided.
Answers are plain numbers, in %.

- Chemical Smiles: "O=C(CN1CCN(c2cc(=O)[nH]c3ccc(F)cc23)CC1)Nc1nc(-c2ccccc2)cs1"
  Uom: "%"
  inhibition of growth at 10 µM: 21.2
- Chemical Smiles: "O=C(CN1CCN(c2cc(=O)[nH]c3ccc(F)cc23)CC1)Nc1nc(-c2ccc(Cl)cc2)cs1"
  Uom: "%"
  inhibition of growth at 10 µM: 29.1

Dear colleague, could you send me inhibition of growth at 10 µM for each of the items below? Thanks.
1. Cc1ccc(-c2csc(NC(=O)CN3CCN(c4cc(=O)[nH]c5ccc(F)cc45)CC3)n2)cc1
2. O=C(CN1CCN(c2cc(=O)n(-c3ccccc3)c3ccccc23)CC1)Nc1nc(-c2ccc(Cl)cc2)cs1

1. 47.5
2. 43.2

----------
system: CCRF-CEM; assay: Cytotoxicity against human CCRF-CEM assessed as growth inhibition at 10 uM by NCI protocol relative to control; assay type: functional; conditions: read-out: GI
Exercise: state measured inhibition of growth at 10 µM for each of the compounds provided.
Numbers only, in %.

- Chemical Smiles: "Cc1ccc(-c2csc(NC(=O)CN3CCN(c4cc(=O)n(-c5ccccc5)c5ccccc45)CC3)n2)cc1"
  Metric: "inhibition of growth at 10 µM"
  Reported: 14.8

Dear colleague, could you send me inhibition of growth at 10 µM for each of the items below? Thanks.
1. O=C(CN1CCN(c2cc(=O)[nH]c3ccc(F)cc23)CC1)Nc1nc(-c2ccc(Cl)cc2)cs1
2. O=C(CN1CCN(c2cc(=O)n(-c3ccccc3)c3ccccc23)CC1)Nc1nc(-c2ccccc2)cs1
3. COc1ccc(-c2csc(NC(=O)CN3CCN(c4cc(=O)[nH]c5ccc(F)cc45)CC3)n2)cc1
4. O=C(CN1CCN(c2cc(=O)n(-c3ccccc3)c3ccccc23)CC1)Nc1nc(-c2ccc(Cl)cc2)cs1
5. COc1ccc(-c2csc(NC(=O)CN3CCN(c4cc(=O)n(-c5ccccc5)c5ccccc45)CC3)n2)cc1
6. Cc1ccc(-c2csc(NC(=O)CN3CCN(c4cc(=O)[nH]c5ccc(F)cc45)CC3)n2)cc1

1. 33.3
2. 60.4
3. 29.8
4. 49.3
5. 24.9
6. 47

----------
test system: SNB-75; test: Cytotoxicity against human SNB-75 assessed as growth inhibition at 10 uM by NCI protocol relative to control; assay type: functional; conditions: read-out: GI
rule met means recorded inhibition of growth at 10 µM is 30% or above; rule not met means it is below 30%.

- Chemical Smiles: "COc1ccc(-c2csc(NC(=O)CN3CCN(c4cc(=O)[nH]c5ccc(F)cc45)CC3)n2)cc1"
  Cat: "rule not met"
- Chemical Smiles: "O=C(CN1CCN(c2cc(=O)n(-c3ccccc3)c3ccccc23)CC1)Nc1nc(-c2ccc(Cl)cc2)cs1"
  Cat: "rule met"
- Chemical Smiles: "Cc1ccc(-c2csc(NC(=O)CN3CCN(c4cc(=O)[nH]c5ccc(F)cc45)CC3)n2)cc1"
  Cat: "rule met"

Please check the record O=C(CN1CCN(c2cc(=O)[nH]c3ccc(F)cc23)CC1)Nc1nc(-c2ccc(Cl)cc2)cs1 and state if its inhibition of growth at 10 µM is at or above 30%.
rule met

Please check the record O=C(CN1CCN(c2cc(=O)n(-c3ccccc3)c3ccccc23)CC1)Nc1nc(-c2ccccc2)cs1 and state if its inhibition of growth at 10 µM is at or above 30%.
rule not met
